test system: human platelet suspension; assay: U46619-induced platelet aggregation in human platelet suspension; assay type: cell-based; conditions: Homo sapiens, Platelet, U46619-induced aggregation, platelet suspension; read-out: P.S(U46619) IC50
pIC50: −log10 of the molar value.
MEASUREMENT_TYPE: pIC50

Guide cases for pIC50, answers given:
COMPOUND | MEASUREMENT_TYPE | REPORTED_MEASUREMENT
Cc1ccc(-c2nc3cc(Cl)ccc3n2Cc2ccccc2)o1 [Example 42b] | pIC50 | 5.35
Cc1ccc(-c2nc3cc(F)ccc3[nH]2)o1 | pIC50 | 4.28
Cc1ccc(-c2nc3ccc(Cl)cc3n2Cc2cccc(Cl)c2)o1 [Example 44b] | pIC50 | 5.51
Cc1ccc(-c2nc3ccc(F)cc3n2Cc2cccc(F)c2)o1 [Example 37b] | pIC50 | 5.93
COc1cccc(Cn2c(-c3ccc(C)o3)nc3cc(Cl)ccc32)c1 [Example 50a] | pIC50 | 4.42

(1) Cc1ccc(-c2nc3cc(Cl)c(Cl)cc3n2Cc2ccc(Cl)cc2)o1
(2) COc1ccc2c(c1)nc(-c1ccc(C)o1)n2Cc1ccccc1 [Example 25b]
(3) Cc1ccc(Cn2c(-c3ccc(C)o3)nc3cc(Cl)c(Cl)cc32)cc1
(4) Cc1ccc(-c2nc3cc(Cl)ccc3n2Cc2ccccc2C)o1 [Example 53a]
Query: With regard to pIC50, arrange the entries in ascending order, please. In your reply, arrange the labels in the requested order.
Result: 3, 1, 4, 2

(a) Cc1ccc(-c2nc3ccc(Cl)cc3n2Cc2cccc(F)c2)o1 [Example 47b]
(b) COc1ccc(Cn2c(-c3ccc(C)o3)nc3cc(Cl)c(Cl)cc32)cc1
(c) Cc1ccc(-c2nc3cc(Cl)ccc3n2Cc2ccc(Cl)cc2)o1 [Example 43b]
(d) Cc1ccc(Cn2c(-c3ccc(C)o3)nc3ccc(Cl)cc32)cc1 [Example 51a]
(e) Cc1ccc(-c2nc3cc(F)ccc3n2Cc2cccc(F)c2)o1 [Example 37a]
Query: Put the items in order so that reported pIC50 rises from first to last. Return value: ordered labels per request.
Result: c, d, b, a, e

(P) Cc1ccc(-c2nc3ccccc3n2Cc2ccccn2)o1
(Q) Cc1ccc2[nH]c(-c3ccc(C)o3)nc2c1
Query: I'm curious, which of these has a smaller pIC50 number: P or Q ? Let me know the label of the one you choose.
Result: Q

====

test system: human platelet suspension; assay: U46619-induced platelet aggregation in human platelet suspension; assay type: cell-based; conditions: Homo sapiens, Platelet, U46619-induced aggregation, platelet suspension; read-out: P.S(U46619) IC50
MEASUREMENT_TYPE: IC50 (µM)

// known answers, use as guide
COMPOUND | IC50 / µM
Cc1ccc(-c2nc3cc(F)ccc3n2Cc2cccc(Cl)c2)o1 [Example 32a] | 4.26
Cc1ccc(-c2nc3cc(Cl)ccc3[nH]2)o1 | 37.3
Cc1ccc(-c2nc3cc(Cl)c(Cl)cc3n2Cc2cccc([N+](=O)[O-])c2)o1 | 27
Cc1ccc(-c2nc3ccc(F)cc3n2Cc2cccc(Cl)c2)o1 [Example 32b] | 3.09

(I) Cc1ccc(-c2nc3cc(Cl)c(Cl)cc3[nH]2)o1
(II) Cc1ccc(-c2nc3ccc(Cl)cc3n2Cc2ccccc2F)o1 [Example 48b]
(III) COc1ccc(Cn2c(-c3ccc(C)o3)nc3cc(F)ccc32)cc1 [Example 34a]
Query: Please list these compounds in decreasing order of IC50. # format: label list in the order the request specifies
Result: III, I, II
(III: 34.5 µM, I: 5.13 µM, II: 3.11 µM)

(1) Cc1cccc(Cn2c(-c3ccc(C)o3)nc3ccc(Cl)cc32)c1 [Example 52b]
(2) COc1ccc(Cn2c(-c3ccc(C)o3)nc3ccc(F)cc32)cc1 [Example 34b]
(3) COc1ccc2nc(-c3ccc(C)o3)n(Cc3cccc(C)c3)c2c1 [Example 27a]
(4) Cc1ccc(-c2nc3ccccc3n2Cc2cccnc2)o1
(5) Cc1ccc(-c2nc3cc(Cl)ccc3n2Cc2cccc(Cl)c2)o1 [Example 44a]
Query: Sort these compounds on IC50 so the largest reading comes first. Please list each label once, in the requested order.
Result: 2, 3, 5, 1, 4
(2: 32.2 µM, 3: 19.2 µM, 5: 9.74 µM, 1: 5.22 µM, 4: 3.01 µM)

(1) Cc1cccc(Cn2c(-c3ccc(C)o3)nc3cc(Cl)ccc32)c1 [Example 52a]
(2) Cc1ccc(-c2nc3ccc(C(=O)c4ccccc4)cc3n2Cc2cccc(Cl)c2)o1
Query: // which entry reports the smaller IC50, 1 or 2 ? Answer format: the label of the selected item.
Result: 2
(2: 19.2 µM, 1: 29.9 µM)
